Let's look at some binders and their measured Kd.
- target_or_system: T1, Mouse IL-18Rα ectodomain (amino acids 19-329), biotinylated (mouse, UniProt Q61098 19-329, biotin on the AviTag (BirA ligase))
- T1 construct: range 19-329; Secreted from Expi293 cells (H7 signal peptide removed); also called mIL-18Rα; mIL18Ra
- T1 sequence: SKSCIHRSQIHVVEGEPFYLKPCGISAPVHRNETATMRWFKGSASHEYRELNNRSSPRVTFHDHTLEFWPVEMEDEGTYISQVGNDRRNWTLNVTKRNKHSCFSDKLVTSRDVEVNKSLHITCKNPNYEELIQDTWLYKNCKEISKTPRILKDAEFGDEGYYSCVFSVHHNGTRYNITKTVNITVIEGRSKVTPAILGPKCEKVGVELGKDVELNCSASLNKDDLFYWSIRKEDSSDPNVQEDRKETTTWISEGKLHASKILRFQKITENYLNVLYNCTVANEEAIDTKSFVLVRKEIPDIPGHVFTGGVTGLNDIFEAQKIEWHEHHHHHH
- assay_explanation: on-yeast binding isotherm (flow cytometry)
- Protocol: Individual colonies of IL-18 yeast were grown overnight at 30° C. in SDCAA liquid media and induced in SGCAA liquid media for 1 day at 20° C. IL-18 display levels on yeast were verified by flow cytometry using an anti-cMyc tag antibody (anti-myc-PE; Cell Signaling Technologies). Receptor staining with biotinylated IL-18Rα (with or without IL-18R β) or biotinylated IL-18BP was performed in PBS supplemented with 0.5% BSA and 2 mM EDTA (PBE) on ice. […]
Hi! Could you send only the number? It should be in µM, unit omitted.

Some binders with known Kd results, for comparison:
Please look up its Kd: SEQ ID NO: 67 (murine DR-IL-18 variant mB1) (ligand, Engineered variant) HFGRLHCTTAVIRNINDQVLFVDKRQPVFEDMTDIDQSASEPQTRLIIYGYADSDARAKAVTLSVKDSKMSTLSCKNKIISFEEMDPPENIDDIQSDLIFFQKSVPGHNKMEFESSLYEGHFLACQKEDDAFKLILKKKDENGDKSVMFTVTNLHQS
0.0179

Quick check: Kd of SEQ ID NO: 60 (murine DR-IL-18 variant mCS1) (ligand, Engineered variant) NFGRLHCTTAVIRNINDQVLFVDKRQPVFEDMTDIDQSASEPQTRLIIYGYADSRVRGKAVTLSVKDSKMSTLSCKNKIISFEEMDPPENIDDIQSDLIFFQKRVPGHNKMEFESSLYEGHFLACQKEDDAFKLILKKKDENGDKSVMFTLTNLHQS ?
0.0107

Give the measured Kd of SEQ ID NO: 64 (murine DR-IL-18 variant mE8) (ligand, Engineered variant) NFGRLHCTTAVIRNINDQVLFVDKRQPVFEDMTDIDQSASEPQTRLIIYVYTDGRRRGKAVTLSVKDSKMSTLSCKNKIISFEEMDPPENIDDIQSDLIFFQKKVPGHDKMEFESSLYEGHFLACQKEDDAFKLILKKKDENGDKSVMFTLTNLHQS .
0.042

For the next question, use this binder.
Please give the measured Kd for this binder: SEQ ID NO: 61 (murine DR-IL-18 variant mCS2) (ligand, Engineered variant) HFGRLHCTTAVIRNINDQVLFVDKRQPVFEDMTDIDQSASEPQTRLIIYAYGDSRARGKAVTLSVKDSKMSTLSCKNKIISFEEMDPPENIDDIQSDLIFFQKRVPGHNKMEFESSLYEGHFLACQKEDDAFKLILKKKDENGDKSVMFTLTNLHQS
0.0113
